molecular target: DCN1 (DCUND1) protein PONY domain (Homo sapiens (Human)); assay: TR-FRET assay (binding to DCN-1, displacement of FAM-labeled probe); conditions: 24 hr after treatment with compound; read-out: TR FRET IC50 24 hr
Sequence (Q96GG9 60-248): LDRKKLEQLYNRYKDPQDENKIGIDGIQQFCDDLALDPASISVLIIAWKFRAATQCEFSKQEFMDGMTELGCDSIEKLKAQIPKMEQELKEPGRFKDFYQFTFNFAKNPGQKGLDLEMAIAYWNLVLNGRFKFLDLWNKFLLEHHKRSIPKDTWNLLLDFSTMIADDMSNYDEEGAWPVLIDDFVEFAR
Entries and their IC50

# Compound, IC50
records = [
    ("CCN1C(=O)[C@H](NC(=O)c2cccc(C(F)(F)F)c2)[C@@H](c2ccccc2NC#N)c2cnn(-c3ccccc3)c21 (racemic) [Compound I-122]", "1000 to 3000 nM"),
    ("CCN1C(=O)[C@@H](NC(=O)c2cccc(C(F)(F)F)c2)[C@H](c2ccccc2CN(C)C#N)c2c(C)nn(-c3ccccc3)c21 (racemic) [Compound I-30]", "1000 to 3000 nM"),
    ("C/C=C(\\CN1CCN(C2COC2)CC1)C(=O)Nc1cccc([C@@H]2c3cnn(-c4ccccc4)c3N(CC)C(=O)[C@H]2NC(=O)c2nccc(C(F)(F)F)n2)c1 [Compound I-232]", "≤ 200 nM"),
    ("C/C=C(\\CN1CCN(C2COC2)CC1)C(=O)N(C)Cc1cccc([C@@H]2c3cnn(-c4ccccc4)c3N(CC)C(=O)[C@H]2NC(=O)c2ccn(C(F)(F)F)n2)c1 [Compound I-237]", "200 to 1000 nM"),
    ("CCN1C(=O)[C@@H](NC(=O)c2cccc(C(F)(F)F)c2)[C@H](c2ccccc2CNC(=O)C2=CCC2)c2cnn(-c3ccccc3)c21 (racemic) [Compound I-101]", "1000 to 3000 nM"),
    ("CCN1C(=O)[C@@H](NC(=O)c2cccc(C(F)(F)F)c2)[C@H](c2cccc(NC(=O)/C(C)=C/C(=O)OC)c2)c2c(C)nn(-c3ccccc3)c21 (racemic) [Compound I-145]", "200 to 1000 nM"),
    ("C=C(CN1CCCC1)C(=O)NCc1cccc([C@@H]2c3cnn(-c4ccccc4)c3N(CC)C(=O)[C@H]2NC(=O)c2cccc(C(F)(F)F)c2)c1 [Compound I-264]", "≤ 200 nM"),
    ("C=C(CN1CCN(C2COC2)CC1)C(=O)N(C)Cc1cccc([C@@H]2c3cnn(-c4ccccc4)c3N(CC)C(=O)[C@H]2NC(=O)c2nccc(C(F)(F)F)n2)c1 [Compound I-223]", "≤ 200 nM"),
    ("C/C=C(\\CN1CCN(C2COC2)CC1)C(=O)NCc1cccc([C@@H]2c3cnn(-c4ccccc4)c3N(CC)C(=O)[C@H]2NC(=O)c2ccn(C(F)(F)F)n2)c1 [Compound I-230A]", "≤ 200 nM"),
    ("CCN1C(=O)[C@H](NC(=O)c2cccc(C(F)(F)F)c2)[C@@H](c2cccc(N(C)C(=O)C3=CCC3)c2)c2cnn(-c3ccccc3)c21 [Compound I-91]", "1000 to 3000 nM"),
    ("C=C(CN1CCOCC1)C(=O)NCc1cccc([C@@H]2c3cnn(-c4ccccc4)c3N(CC)C(=O)[C@H]2NC(=O)c2ccn(C(F)(F)F)n2)c1 [Compound I-135]", "≤ 200 nM"),
    ("CCN1C(=O)[C@H](NC(=O)c2cccc(C(F)(F)F)c2)[C@@H](c2cccc(NC(=O)CC#N)c2)c2c(C)nn(-c3ccccc3)c21 (racemic) [Compound I-103]", "1000 to 3000 nM"),
    ("CCN1C(=O)[C@@H](NC(=O)c2cccc(C(F)(F)F)c2)[C@H](c2cccc(CNC(=O)C3=CCC3)c2)c2cnn(-c3ccccc3)c21 (racemic) [Compound I-126]", "1000 to 3000 nM"),
    ("CCN1C(=O)[C@@H](NC(=O)c2cccc(C(F)(F)F)c2)[C@H](c2cncc(NC(=O)C3=CCC3)c2)c2cnn(-c3ccccc3)c21 [Compound I-319]", "200 to 1000 nM"),
    ("C=C(C(=O)NCc1cccc([C@@H]2c3cnn(-c4ccccc4)c3N(CC)C(=O)[C@H]2NC(=O)c2nccc(C(F)(F)F)n2)c1)[C@@H](C)N(C)C1COC1 [Compound I-300]", "≤ 200 nM"),
    ("CCN1C(=O)[C@@H](NC(=O)c2nccc(C(F)(F)F)n2)[C@H](c2cccc(CN3CC=CS3(=O)=O)c2)c2cnn(-c3ccccc3)c21 [Compound I-263]", "1000 to 3000 nM"),
    ("C/C=C(\\CN1CCOCC1)C(=O)NCc1cccc([C@@H]2c3cnn(-c4ccccc4)c3N(CC)C(=O)[C@H]2NC(=O)c2nccc(C(F)(F)F)n2)c1 [Compound I-363]", "≤ 200 nM"),
    ("CCN1C(=O)[C@H](NC(=O)c2cccc(C(F)(F)F)c2)[C@@H](c2cccc(NC(=O)C#CCN3CCOCC3)c2)c2c(C)nn(-c3ccccc3)c21 (racemic) [Compound I-139]", "200 to 1000 nM"),
    ("CCN1C(=O)[C@@H](NC(=O)c2cccc(C(F)(F)F)c2)[C@H](c2cccc3c2CN(C#N)C3)c2cnn(-c3ccccc3)c21 (racemic) [Compound I-282]", "1000 to 3000 nM"),
    ("CCN1C(=O)[C@@H](NC(=O)c2nccc(C(F)(F)F)n2)[C@H](c2cccc(NC(=O)C3=CCN(C4COC4)C3)c2)c2c(C)nn(-c3ccccc3)c21 [Compound I-226]", "200 to 1000 nM"),
    ("CCN1C(=O)[C@@H](NC(=O)c2cccc(C(F)(F)F)c2)[C@H](c2cccc(CNC/C=C/C(=O)N(C)C)c2)c2cnn(-c3ccccc3)c21 [Compound I-372]", "200 to 1000 nM"),
    ("CCN1C(=O)[C@@H](NC(=O)c2nccc(C(F)(F)F)n2)[C@H](c2cccc(C(=O)N3CCC[C@H]3C#N)c2)c2cnn(-c3ccccc3)c21 [Compound I-249]", "1000 to 3000 nM"),
]

Hello, the source for this data is patent US12435087B2, in case you need it.
